The reported measurements were obtained from patent US20030068675.

Biological target: T1, ZFP SBS#236 (synthetic, UniProt P08047)
T1 chain: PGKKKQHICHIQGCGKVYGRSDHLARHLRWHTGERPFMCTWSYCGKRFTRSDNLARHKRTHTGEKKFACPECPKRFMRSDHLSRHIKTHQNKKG
Assay: EMSA
Details: tags: MBP fusion
PROPERTY NAME: Kd (pM)
Lab book: enter the figure in pM, no units written.

*Q* Entry GGGGAGGGG (dsDNA) DNA 1: GGGGAGGGG DNA 2: CCCCTCCCC : reported Kd = ?
*A* 300
